target desc: PI3K (p110α/p85α) (Homo sapiens, UniProt P42336)
Construct: purchased Carna Biosciences 07CBS-0402A
Sequence (P42336 whole entry): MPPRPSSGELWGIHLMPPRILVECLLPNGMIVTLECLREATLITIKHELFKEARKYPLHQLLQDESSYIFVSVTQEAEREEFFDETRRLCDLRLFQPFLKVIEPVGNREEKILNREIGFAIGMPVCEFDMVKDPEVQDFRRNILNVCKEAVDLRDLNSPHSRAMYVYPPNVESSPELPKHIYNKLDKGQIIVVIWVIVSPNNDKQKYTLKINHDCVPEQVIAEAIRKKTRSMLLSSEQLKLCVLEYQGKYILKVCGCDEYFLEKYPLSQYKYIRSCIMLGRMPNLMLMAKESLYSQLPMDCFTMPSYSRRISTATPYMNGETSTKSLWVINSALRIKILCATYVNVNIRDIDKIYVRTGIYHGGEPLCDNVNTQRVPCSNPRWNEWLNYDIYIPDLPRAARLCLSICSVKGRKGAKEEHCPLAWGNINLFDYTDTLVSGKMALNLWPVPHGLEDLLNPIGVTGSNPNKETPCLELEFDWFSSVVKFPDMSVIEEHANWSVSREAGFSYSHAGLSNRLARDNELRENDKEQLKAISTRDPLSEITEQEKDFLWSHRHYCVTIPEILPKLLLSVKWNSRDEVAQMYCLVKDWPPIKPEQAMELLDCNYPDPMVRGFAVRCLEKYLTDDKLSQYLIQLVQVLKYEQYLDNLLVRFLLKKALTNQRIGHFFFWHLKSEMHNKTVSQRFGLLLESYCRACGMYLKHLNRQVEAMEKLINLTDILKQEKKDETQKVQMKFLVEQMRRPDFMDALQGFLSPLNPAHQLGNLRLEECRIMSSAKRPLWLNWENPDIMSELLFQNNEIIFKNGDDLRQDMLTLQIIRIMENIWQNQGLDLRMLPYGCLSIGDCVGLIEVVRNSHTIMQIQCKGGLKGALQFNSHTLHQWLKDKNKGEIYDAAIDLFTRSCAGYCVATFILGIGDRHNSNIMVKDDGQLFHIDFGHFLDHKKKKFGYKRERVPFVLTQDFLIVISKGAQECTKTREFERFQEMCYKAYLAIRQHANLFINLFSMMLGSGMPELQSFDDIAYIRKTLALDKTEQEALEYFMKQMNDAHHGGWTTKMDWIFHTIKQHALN
Sequence (P27986 whole entry partner): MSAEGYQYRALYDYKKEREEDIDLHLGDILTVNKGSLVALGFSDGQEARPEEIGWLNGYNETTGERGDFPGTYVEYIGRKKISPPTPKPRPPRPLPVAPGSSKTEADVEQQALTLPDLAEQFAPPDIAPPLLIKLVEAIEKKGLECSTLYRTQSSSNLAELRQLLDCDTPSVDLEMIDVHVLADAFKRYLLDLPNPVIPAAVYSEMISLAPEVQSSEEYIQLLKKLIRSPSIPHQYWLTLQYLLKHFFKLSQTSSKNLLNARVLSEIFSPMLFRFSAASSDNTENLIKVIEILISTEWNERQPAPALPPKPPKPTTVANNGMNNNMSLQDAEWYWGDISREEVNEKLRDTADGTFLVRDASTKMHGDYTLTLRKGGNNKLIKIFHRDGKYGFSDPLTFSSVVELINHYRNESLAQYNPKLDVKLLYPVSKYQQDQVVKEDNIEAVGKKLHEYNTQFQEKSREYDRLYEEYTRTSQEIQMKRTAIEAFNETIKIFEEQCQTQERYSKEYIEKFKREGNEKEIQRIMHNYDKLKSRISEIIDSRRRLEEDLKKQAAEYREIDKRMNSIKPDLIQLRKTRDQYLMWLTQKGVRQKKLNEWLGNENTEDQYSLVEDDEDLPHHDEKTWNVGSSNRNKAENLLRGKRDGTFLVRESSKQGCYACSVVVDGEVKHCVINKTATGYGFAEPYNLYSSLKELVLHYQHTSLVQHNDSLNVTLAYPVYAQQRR
method: PI3K activity assay (ADP Hunter Plus)
Format: biochemical
experimental setup: PI3Kα; quantitative results; read-out: PI3K α IC50
pIC50: −log10 of the molar value.
metric name: pIC50

a = CCOC(=O)N1CCc2nc3c(N4CCOCC4)nc(-c4cccc(O)c4)cn3c2C1
b = COc1ccc(NC(=O)N2CCc3nc4c(N5CCOCC5)nc(-c5cnc(N)nc5)cn4c3C2)cc1
For the two items a and b , which reports the higher pIC50 value? Reply with the label of the item you choose.
b
(b: 7.15, a: 6.68)

1 = COc1cccc(CN2CCc3nc4c(N5CCOCC5)nc(-c5cnc(N)nc5)cn4c3C2)c1
2 = Nc1ncc(-c2cn3c4c(nc3c(N3CCOCC3)n2)CCN(S(=O)(=O)C2CCCC2)C4)cn1
Of the pair 1 and 2 , name the member with the lesser recorded pIC50. Please respond with the label that marks your chosen entry.
1

P = COc1ccc(CNC(=O)N2CCc3nc4c(N5CCOCC5)nc(-c5cnc(N)nc5)cn4c3C2)cc1
Q = COC(=O)N1CCc2nc3c(N4CCOCC4)nc(-c4cnc(N)nc4)cn3c2C1
R = CCN1CCc2nc3c(N4CCOCC4)nc(-c4cnc(N)nc4)cn3c2C1
S = CCOC(=O)N1CCc2nc3c(N4CCOCC4)nc(-c4cncc(OC)c4)cn3c2C1
# rank_down: sort by pIC50, max first The response must list the labels following the requested ordering.
P, Q, R, S

A = CCCCS(=O)(=O)N1CCc2nc3c(N4CCOCC4)nc(-c4cnc(N)nc4)cn3c2C1
B = CC(C)S(=O)(=O)N1CCc2nc3c(N4CCOCC4)nc(-c4cnc(N)nc4)cn3c2C1
Problem: Given the entries A and B , determine which has the lower reported pIC50. // return label of chosen record
B
(B: 7.11, A: 7.48)
